src = ChEMBL document CHEMBL4732252

Catalogue of microsomal CLint readings, one per entry.
# testName: Intrinsic clearance in human liver microsomes
# Format: ADME, Microsome
# conditionDetails: read-out: CLH

>  <chemSmiles>
COc1cc2ncnc(Nc3cnc(OCCC4CC4)nc3)c2cc1OCC1CCNCC1

>  <resultComparator>
<

>  <microsomal CLint / µL/min/mg>
3

$$$$
>  <chemSmiles>
CNC(=O)c1sc(N2CC3CC2(CNC(=O)c2c[nH]c4ncc(C)cc24)C3)nc1C(F)(F)F

>  <resultComparator>
>

>  <microsomal CLint / µL/min/mg>
270

$$$$
>  <chemSmiles>
CN(Cc1ccc2nccn2c1)c1nnc(-c2ccc(-c3ccccc3Cl)nc2)o1

>  <resultComparator>
=

>  <microsomal CLint / µL/min/mg>
92

$$$$
>  <chemSmiles>
CNC(=O)c1sc(N2CC3CC2(CNC(=O)c2c[nH]c4ncc(C(F)(F)F)cc24)C3)nc1C(F)(F)F

>  <resultComparator>
=

>  <microsomal CLint / µL/min/mg>
130

$$$$
>  <chemSmiles>
CNC(=O)c1cnc(Nc2ccc(OC)cc2C)nc1NC1CCCC1

>  <resultComparator>
=

>  <microsomal CLint / µL/min/mg>
37

$$$$
